All values here come from patent US20240279207A1.

test system: ESR1 transcription in MVLN cells; assay: MVLN reporter assay: repression of ESR1 transcription (luciferase signal); assay type: cell-based; settings: Homo sapiens, MVLN, 24 h, luciferase signal after 24 h, read-out: MVLN reporter assay, IC50 [M] (arithmetic mean)
Could you please report measured log10 of IC50 for the items listed next?
A value of 2 here means IC50 of 100 in M, since values are log10.

Look up and report measured log10 of IC50 for this entry: CCS(=O)(=O)c1ccccc1S(=O)(=O)NC(=O)c1cc2c(F)cc(N3CCC3)cc2o1
-5.46

Return log10 of IC50 for the following compound: Cc1ccnc2c1c(S(=O)(=O)NC(=O)c1cc3c(F)cc(N4CCC4)cc3o1)nn2C
-5.55

Output measured log10 of IC50 for this item: COc1ccc(-c2c(C)noc2C)cc1S(=O)(=O)NC(=O)c1cc2c(F)cc(N3CCC3)cc2o1
-7.11

For the compound CC1(C)CCc2cccc(S(=O)(=O)NC(=O)c3cc4c(F)cc(N5CCC5)cc4o3)c2O1 , give its reported log10 of IC50.
-7.14

Could you please provide reported log10 of IC50 for CC(O)c1ccc(Cl)c(S(=O)(=O)NC(=O)c2cc3c(F)cc(N4CCC4)cc3o2)c1 (racemic) ? Thanks!
-5.89

Tell me log10 of IC50 reported for O=C(NS(=O)(=O)c1cnc2ccccn12)c1cc2c(F)cc(N3CCC3)cc2o1
-4.77
